# pKi values compiled below
- Tgt: D(4) dopamine receptor (Homo sapiens)
- Sequence (P21917 whole entry): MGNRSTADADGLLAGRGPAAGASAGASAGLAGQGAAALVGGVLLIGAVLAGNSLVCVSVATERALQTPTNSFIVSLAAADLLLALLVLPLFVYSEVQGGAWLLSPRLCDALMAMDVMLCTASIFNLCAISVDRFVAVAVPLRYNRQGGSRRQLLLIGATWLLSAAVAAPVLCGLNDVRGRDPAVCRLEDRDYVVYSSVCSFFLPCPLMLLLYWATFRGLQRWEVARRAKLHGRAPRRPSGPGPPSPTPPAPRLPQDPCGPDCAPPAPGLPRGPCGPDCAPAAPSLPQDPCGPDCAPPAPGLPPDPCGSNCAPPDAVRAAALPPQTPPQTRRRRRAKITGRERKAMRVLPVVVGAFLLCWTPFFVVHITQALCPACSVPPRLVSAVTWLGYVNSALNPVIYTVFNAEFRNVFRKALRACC
- Test Details: Binding affinity against human Dopamine receptor D4 in CHO-K1 cells using [3H]spiperone as radioligand
pKi: −log10 of the molar value.
Measured Endpoint: pKi

> print(dat)
                                   molecule  value.reported
1        C(#Cc1ccncc1)CCN1CC=C(c2ccccc2)CC1            6.24
2       Nc1ccc(C#CCCN2CC=C(c3ccccc3)CC2)cn1            6.56
3       Nc1ccc(C#CCCN2CC=C(c3ccccc3)CC2)cc1            6.64
4  Oc1ccc2[nH]cc(CCCCN3CC=C(c4ccccc4)CC3)c2c1 [ROXINDOLE]            7.62
5       Nc1ccc(C#CCCN2CC=C(c3ccccc3)CC2)nc1            6.43
6        C(#Cc1cccnc1)CCN1CC=C(c2ccccc2)CC1            6.17
